- System: Ba/F3 KIF5B-RET-G810S
- Assay Procedure: In vitro cell viability assay (CellTiter-Glo)
- Format: cell-based
- Measurement Parameters: Mus musculus, BaF3, 72 h, 3 days
pIC50: −log10 of the molar value.

Smiles Str: COc1ccc(CN2C3CC2CN(c2ccc(-c4cc(OCC(C)(C)O)cn5ncc(C#N)c45)cn2)C3)cn1
pIC50: 6.69
//
Smiles Str: CO[C@]1(C(=O)N[C@@H](C)c2ccc(-n3cc(F)cn3)nc2)CC[C@H](c2nc(C)cc(Nc3cc(C)[nH]n3)n2)CC1
pIC50: 7.04
